Measured values drawn from paper PMC12144822 for this set.

# maps each entry to its pIC50
study_target: Clu-GABA α1β2γ2 (Canis lupus familiaris, UniProt A0A2H4NNI8+A0A8I3RPG5+E2RSQ0)
Sequence (A0A2H4NNI8 28-456, one chain of several): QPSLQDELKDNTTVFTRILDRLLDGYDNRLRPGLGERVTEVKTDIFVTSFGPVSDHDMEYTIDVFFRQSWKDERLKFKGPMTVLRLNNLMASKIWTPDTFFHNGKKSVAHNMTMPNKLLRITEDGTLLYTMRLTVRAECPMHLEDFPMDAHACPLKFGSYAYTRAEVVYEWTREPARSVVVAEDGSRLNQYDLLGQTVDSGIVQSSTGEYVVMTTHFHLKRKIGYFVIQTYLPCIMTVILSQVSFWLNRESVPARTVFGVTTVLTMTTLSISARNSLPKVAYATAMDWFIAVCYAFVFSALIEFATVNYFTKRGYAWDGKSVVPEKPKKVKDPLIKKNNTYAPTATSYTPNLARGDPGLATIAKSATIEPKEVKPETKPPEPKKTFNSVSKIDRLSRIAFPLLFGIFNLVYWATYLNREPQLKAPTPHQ
test_details: Two-electrode voltage-clamp inhibition of GABA current, receptor expressed in Xenopus oocytes
Format: cell-based
cond: Xenopus oocytes, −80 mV, 60 s pre-exposure, co-applied with GABA 1 µM (near EC10)
# reply with the number alone; pIC50 is -log10 of concentration in mol/L

>  <compound>
O=C(CNC(=O)c1ccc(C2=NOC(c3cc(Cl)cc(C(F)(F)F)c3)(C(F)(F)F)C2)c2ccccc12)NCC(F)(F)F (stereo not drawn) [Afoxolaner, afoxolaner]

>  <pIC50>
5.52

$$$$
>  <compound>
CS(=O)(=O)CC(=O)N1CC2(C1)OCc1cc(C3=NO[C@@](c4cc(Cl)c(F)c(Cl)c4)(C(F)(F)F)C3)ccc12 [Sarolaner, sarolaner]

>  <pIC50>
4.66

$$$$

--- query ---
Query: Param readout = pIC50; param system = Clu-GABA α1β2γ2 (Canis lupus familiaris, UniProt A0A2H4NNI8+A0A8I3RPG5+E2RSQ0); param query = Cc1cc(C2=NOC(c3cc(Cl)cc(Cl)c3)(C(F)(F)F)C2)ccc1C(=O)NCC(=O)NCC(F)(F)F (stereo not drawn) [Fluralaner, fluralaner] ; response: value
Reply: 5.37

====

study_target: Clu-GABA α3β2γ2 (Canis lupus familiaris, UniProt A0A8I3PRS3+A0A8I3RPG5+E2RSQ0)
Sequence (A0A8I3PRS3 29-259): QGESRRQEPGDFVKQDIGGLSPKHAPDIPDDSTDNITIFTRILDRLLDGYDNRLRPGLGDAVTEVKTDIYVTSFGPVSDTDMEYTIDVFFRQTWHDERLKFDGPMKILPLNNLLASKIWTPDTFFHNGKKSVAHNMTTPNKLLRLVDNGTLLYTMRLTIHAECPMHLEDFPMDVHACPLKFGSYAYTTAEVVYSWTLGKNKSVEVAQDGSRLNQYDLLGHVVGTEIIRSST
Sequence (A0A8I3RPG5 25-473): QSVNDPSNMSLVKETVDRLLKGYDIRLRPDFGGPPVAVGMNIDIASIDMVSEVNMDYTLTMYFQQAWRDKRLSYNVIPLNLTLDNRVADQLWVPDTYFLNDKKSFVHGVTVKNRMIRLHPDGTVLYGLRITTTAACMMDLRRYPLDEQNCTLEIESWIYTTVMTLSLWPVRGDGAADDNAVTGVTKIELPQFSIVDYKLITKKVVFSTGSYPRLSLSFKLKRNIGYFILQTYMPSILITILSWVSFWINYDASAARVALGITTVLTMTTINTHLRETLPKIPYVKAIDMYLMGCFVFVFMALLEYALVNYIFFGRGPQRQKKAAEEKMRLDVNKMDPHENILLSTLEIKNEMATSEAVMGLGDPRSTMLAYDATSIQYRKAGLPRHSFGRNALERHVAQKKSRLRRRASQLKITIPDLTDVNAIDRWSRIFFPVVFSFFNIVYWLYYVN
Sequence (E2RSQ0 40-467): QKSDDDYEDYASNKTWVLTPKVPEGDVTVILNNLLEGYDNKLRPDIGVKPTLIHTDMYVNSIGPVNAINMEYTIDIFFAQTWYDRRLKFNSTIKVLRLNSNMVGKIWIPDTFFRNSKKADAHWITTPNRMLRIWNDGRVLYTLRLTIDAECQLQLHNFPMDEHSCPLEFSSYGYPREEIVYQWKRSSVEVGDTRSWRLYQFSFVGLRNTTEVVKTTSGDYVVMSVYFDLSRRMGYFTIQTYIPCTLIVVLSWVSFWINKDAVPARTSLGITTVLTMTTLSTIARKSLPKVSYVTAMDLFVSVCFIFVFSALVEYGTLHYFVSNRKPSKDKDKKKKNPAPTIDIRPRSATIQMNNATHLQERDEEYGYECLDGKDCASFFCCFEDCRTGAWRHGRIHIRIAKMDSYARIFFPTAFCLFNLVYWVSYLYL
test_details: Two-electrode voltage-clamp concentration-activation by the natural agonist, receptor expressed in Xenopus oocytes
Assay type: cell-based
cond: agonist, 10 s applications, Xenopus oocytes, −80 mV
property_name: EC50 (µM)
Number only, in µM; omit the unit.

Query: Returns the measured EC50 for the input molecule. Input: NCCCC(=O)O [GABA, gamma-aminobutyric acid]
Reply: 40.4

====

study_target: Hsa-GABA α2β3γ2 (Homo sapiens, UniProt P18507+P28472+P47869)
Sequence (P47869 29-451): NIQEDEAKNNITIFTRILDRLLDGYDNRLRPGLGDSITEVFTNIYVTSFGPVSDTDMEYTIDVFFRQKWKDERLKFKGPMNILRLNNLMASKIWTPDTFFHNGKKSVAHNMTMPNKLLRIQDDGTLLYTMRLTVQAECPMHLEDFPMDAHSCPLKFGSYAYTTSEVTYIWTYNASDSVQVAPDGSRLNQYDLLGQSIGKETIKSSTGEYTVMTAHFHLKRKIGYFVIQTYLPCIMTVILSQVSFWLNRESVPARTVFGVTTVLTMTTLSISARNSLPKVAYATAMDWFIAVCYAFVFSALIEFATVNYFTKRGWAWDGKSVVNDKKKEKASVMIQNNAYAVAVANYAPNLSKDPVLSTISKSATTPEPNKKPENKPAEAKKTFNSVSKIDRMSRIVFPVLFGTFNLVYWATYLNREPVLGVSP
Sequence (P28472 26-473): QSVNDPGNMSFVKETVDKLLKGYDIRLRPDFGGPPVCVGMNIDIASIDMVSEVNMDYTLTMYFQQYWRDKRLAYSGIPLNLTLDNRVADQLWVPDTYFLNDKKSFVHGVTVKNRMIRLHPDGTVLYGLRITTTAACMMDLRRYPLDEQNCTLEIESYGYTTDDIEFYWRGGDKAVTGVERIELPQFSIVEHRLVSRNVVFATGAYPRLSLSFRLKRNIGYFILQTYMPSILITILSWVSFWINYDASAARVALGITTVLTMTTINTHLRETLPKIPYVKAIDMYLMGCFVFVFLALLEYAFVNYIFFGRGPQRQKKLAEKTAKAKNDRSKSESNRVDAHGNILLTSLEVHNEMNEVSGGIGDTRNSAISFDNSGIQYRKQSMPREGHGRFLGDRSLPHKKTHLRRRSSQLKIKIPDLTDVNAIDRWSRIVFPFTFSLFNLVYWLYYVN
Sequence (P18507 40-467 isoform P18507-1 limits assumed): as the sequence (E2RSQ0 40-467) above
test_details: Two-electrode voltage-clamp inhibition of GABA current, receptor expressed in Xenopus oocytes
pIC50: −log10 of the molar value.
property_name: pIC50

Query: Give its pIC50 value. Item: Cc1cc(C2=NO[C@@](c3cc(Cl)c(Cl)c(Cl)c3)(C(F)(F)F)C2)sc1C(=O)NCC(=O)NCC(F)(F)F [Lotilaner, lotilaner]
Reply: < 4.52

====

System: Hsa-GABARs
test_details: Voltage-clamp inhibition, summary over the six human subunit combinations
cond: at 30 μM, average over Hsa-GABARs
property_name: average GABA current inhibition
Answer by giving the amount and then stating its unit.

// worked examples, average GABA current inhibition included
>  <compound>
O=C(CNC(=O)c1ccc(C2=NOC(c3cc(Cl)cc(C(F)(F)F)c3)(C(F)(F)F)C2)c2ccccc12)NCC(F)(F)F (stereo not shown) [Afoxolaner, afoxolaner]

>  <study_target>
Hsa-GABARs

>  <average GABA current inhibition>
59%

$$$$
>  <compound>
Cc1cc(C2=NOC(c3cc(Cl)cc(Cl)c3)(C(F)(F)F)C2)ccc1C(=O)NCC(=O)NCC(F)(F)F (stereo not shown) [Fluralaner, fluralaner]

>  <study_target>
Hsa-GABARs

>  <average GABA current inhibition>
82%

$$$$
>  <compound>
Cc1cc(C2=NO[C@@](c3cc(Cl)c(Cl)c(Cl)c3)(C(F)(F)F)C2)sc1C(=O)NCC(=O)NCC(F)(F)F [Lotilaner, lotilaner]

>  <study_target>
Hsa-GABARs

>  <average GABA current inhibition>
13%

$$$$

Now examine the next entry.
Query: Name the recorded average GABA current inhibition for CS(=O)(=O)CC(=O)N1CC2(C1)OCc1cc(C3=NO[C@@](c4cc(Cl)c(F)c(Cl)c4)(C(F)(F)F)C3)ccc12 [Sarolaner, sarolaner] .
Reply: 53%

====

study_target: Clu-GABA α5β2γ2 (Canis lupus familiaris, UniProt A0A8I3PC22+A0A8I3RPG5+E2RSQ0)
Sequence (A0A8I3PC22 32-462): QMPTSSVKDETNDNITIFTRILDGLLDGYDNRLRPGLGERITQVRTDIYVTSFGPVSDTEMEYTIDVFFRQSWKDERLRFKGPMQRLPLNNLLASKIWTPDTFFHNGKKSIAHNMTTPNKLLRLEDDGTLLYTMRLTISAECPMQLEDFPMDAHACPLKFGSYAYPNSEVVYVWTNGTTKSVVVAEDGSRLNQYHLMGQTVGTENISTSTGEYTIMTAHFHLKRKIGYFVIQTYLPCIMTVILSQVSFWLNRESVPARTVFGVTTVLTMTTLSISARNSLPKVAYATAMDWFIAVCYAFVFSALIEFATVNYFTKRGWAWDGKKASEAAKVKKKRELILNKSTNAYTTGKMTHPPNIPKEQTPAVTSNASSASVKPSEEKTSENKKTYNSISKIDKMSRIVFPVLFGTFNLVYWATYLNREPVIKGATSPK
Sequence (A0A8I3RPG5 25-473): as the sequence (A0A8I3RPG5 25-473) above
Sequence (E2RSQ0 40-467): as the sequence (E2RSQ0 40-467) above
test_details: Two-electrode voltage-clamp inhibition of GABA current, receptor expressed in Xenopus oocytes
Type: cell-based
cond: Xenopus oocytes, −80 mV, 60 s pre-exposure, co-applied with GABA 1 µM (near EC10)
property_name: pIC50
// pIC50 is dimensionless: -log10 of concentration (M)

Solved entries:
>  <molecule>
O=C(CNC(=O)c1ccc(C2=NOC(c3cc(Cl)cc(C(F)(F)F)c3)(C(F)(F)F)C2)c2ccccc12)NCC(F)(F)F (stereo not drawn)

>  <property_name>
pIC50

>  <value_measured>
5.13

$$$$
>  <molecule>
CS(=O)(=O)CC(=O)N1CC2(C1)OCc1cc(C3=NO[C@@](c4cc(Cl)c(F)c(Cl)c4)(C(F)(F)F)C3)ccc12

>  <property_name>
pIC50

>  <value_measured>
4.99

$$$$

# ---- query molecule ----
Query: What value of pIC50 on Clu-GABA α5β2γ2 (Canis lupus familiaris, UniProt A0A8I3PC22+A0A8I3RPG5+E2RSQ0) does Cc1cc(C2=NOC(c3cc(Cl)cc(Cl)c3)(C(F)(F)F)C2)ccc1C(=O)NCC(=O)NCC(F)(F)F (stereo not drawn) have?
Reply: 5.64

====

study_target: Clu-GABA α2β3γ2 (Canis lupus familiaris, UniProt A0A8I3NUI4+A0A8I3S1N5+E2RSQ0)
Sequence (A0A8I3NUI4 101-496, one chain of several): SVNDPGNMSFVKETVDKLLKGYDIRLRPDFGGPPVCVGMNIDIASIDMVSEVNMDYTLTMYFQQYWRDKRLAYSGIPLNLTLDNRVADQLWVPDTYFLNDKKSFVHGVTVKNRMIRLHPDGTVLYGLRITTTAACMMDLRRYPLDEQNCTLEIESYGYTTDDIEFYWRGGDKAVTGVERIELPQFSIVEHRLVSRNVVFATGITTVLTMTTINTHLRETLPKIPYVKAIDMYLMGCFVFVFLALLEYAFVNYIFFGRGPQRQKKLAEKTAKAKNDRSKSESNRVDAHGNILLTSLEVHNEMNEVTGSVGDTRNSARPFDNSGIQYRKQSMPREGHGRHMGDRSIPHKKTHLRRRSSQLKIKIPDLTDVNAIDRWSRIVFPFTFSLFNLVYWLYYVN
test_details: Two-electrode voltage-clamp inhibition of GABA current, receptor expressed in Xenopus oocytes
Type: cell-based
cond: Xenopus oocytes, −80 mV, 60 s pre-exposure, co-applied with GABA 1 µM (near EC10)
property_name: IC50

Example entries begin here.
>  <compound>
Cc1cc(C2=NOC(c3cc(Cl)cc(Cl)c3)(C(F)(F)F)C2)ccc1C(=O)NCC(=O)NCC(F)(F)F (stereo not drawn) [Fluralaner, fluralaner]

>  <IC50>
13 µM

$$$$
>  <compound>
O=C(CNC(=O)c1ccc(C2=NOC(c3cc(Cl)cc(C(F)(F)F)c3)(C(F)(F)F)C2)c2ccccc12)NCC(F)(F)F (stereo not drawn) [Afoxolaner, afoxolaner]

>  <IC50>
15.7 µM

$$$$

Next compound, please.
Query: Which IC50 is listed for CS(=O)(=O)CC(=O)N1CC2(C1)OCc1cc(C3=NO[C@@](c4cc(Cl)c(F)c(Cl)c4)(C(F)(F)F)C3)ccc12 [Sarolaner, sarolaner] ?
Reply: 13.4 µM
